substrate: F protein of hMPV virus strain B1 (human metapneumovirus, strain B1); assay: cell-based or functional assay
Measured Endpoint: EC50 (nM), plaque reduction, hMPV B1, Vero cells
Field format: number, assumed nM, no unit text.

Worked cases, EC50 (nM), plaque reduction, hMPV B1, Vero cells given:
Binder	Recorded Measurement
DEFDKKIEEVNKKIEESLKKIEESDKKLEEVNEAAAKK (modifications not checked) [Compound 14]	5.36
SDEFDKKIEEVNKKIEESLKKIEESDKKLGSGSGK (modifications not checked) [Compound 20]	4.27
WDEFDKKIEEVNKKIEESLKKIEESDKKLEAAAKK (modifications not checked) [Compound 13]	6.18

// query // returns reported EC50 (nM), plaque reduction, hMPV B1, Vero cells for input WDEFDKKIEEVNKKIEESLKKIEESDKKLEEVNAEAAAKK (modifications not checked) [Compound 40]
// result 7.47

// query Cool, now WDEFDKKIEEVNKKIEESLKKIEESDKKLHNVEAAAKK (modifications not checked) [Compound 44]
// result 6.6

// query Cool, now LVKKIDEFDASISQVNEKINQSLEEIRKSDELLHNVGSGSGK (modifications not checked) [Compound 29]
// result 11.1
